Quick reference: pIC50 of the listed items.
TARGET: UniProt P23458
Sequence (P23458 whole entry): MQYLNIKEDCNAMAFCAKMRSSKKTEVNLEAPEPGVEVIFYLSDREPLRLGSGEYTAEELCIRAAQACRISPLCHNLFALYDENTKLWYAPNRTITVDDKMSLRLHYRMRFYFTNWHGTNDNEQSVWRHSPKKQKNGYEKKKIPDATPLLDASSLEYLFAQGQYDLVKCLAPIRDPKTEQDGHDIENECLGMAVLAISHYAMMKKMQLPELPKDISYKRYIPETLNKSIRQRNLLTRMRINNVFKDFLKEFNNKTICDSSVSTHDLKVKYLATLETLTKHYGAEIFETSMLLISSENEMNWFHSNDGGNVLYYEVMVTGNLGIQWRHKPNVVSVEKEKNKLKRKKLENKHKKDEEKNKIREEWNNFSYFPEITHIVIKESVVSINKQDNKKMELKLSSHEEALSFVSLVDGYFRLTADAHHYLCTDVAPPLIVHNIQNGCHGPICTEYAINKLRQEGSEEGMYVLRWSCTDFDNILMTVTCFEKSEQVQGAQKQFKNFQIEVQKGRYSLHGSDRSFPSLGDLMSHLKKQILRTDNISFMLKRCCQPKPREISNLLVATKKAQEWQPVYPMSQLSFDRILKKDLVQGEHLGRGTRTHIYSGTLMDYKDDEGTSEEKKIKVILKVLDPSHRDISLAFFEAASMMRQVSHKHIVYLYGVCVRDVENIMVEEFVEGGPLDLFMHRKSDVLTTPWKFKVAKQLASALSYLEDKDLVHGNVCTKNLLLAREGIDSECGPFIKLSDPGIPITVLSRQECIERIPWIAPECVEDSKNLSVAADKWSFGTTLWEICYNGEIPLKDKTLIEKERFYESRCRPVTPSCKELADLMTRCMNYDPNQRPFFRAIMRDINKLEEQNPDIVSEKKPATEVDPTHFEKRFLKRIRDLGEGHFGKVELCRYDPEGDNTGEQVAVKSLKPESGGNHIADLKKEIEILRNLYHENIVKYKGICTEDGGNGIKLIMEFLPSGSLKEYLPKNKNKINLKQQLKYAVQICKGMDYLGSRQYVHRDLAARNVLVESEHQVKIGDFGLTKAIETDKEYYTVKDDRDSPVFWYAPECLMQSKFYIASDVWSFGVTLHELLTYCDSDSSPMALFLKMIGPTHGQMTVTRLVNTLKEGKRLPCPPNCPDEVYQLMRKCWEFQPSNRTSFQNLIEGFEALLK
ASSAY_SUMMARY: JAK1 Inhibition Assay (Example B, Omnia kinase fluorescence peptide substrate assay)
Format: biochemical
REPORTED_CONDITIONS: JAK1 Enzyme IC50 1 mM ATP, 1 mM ATP; averaged IC50 ranges
pIC50: −log10 of the molar value.

Field: example entries. Status: answers known.
>  <MOLECULE>
CCC(CC)n1cc(-c2nc(-c3cnn([C@@H](C)CO)c3)cn3nccc23)cn1 [Example 125]

>  <pIC50>
5.00 to 6.00

$$$$
>  <MOLECULE>
CC[C@@H](CC1CC1)n1cc(-c2nc(-c3cnn(C[C@@H](O)CO)c3)cn3nccc23)cn1 [Example 205]

>  <pIC50>
6.00 to 7.00

$$$$
>  <MOLECULE>
CCC(CC)n1cc(-c2nc(-c3cnn(CC(CO)CO)c3)cn3nccc23)cn1 [Example 61]

>  <pIC50>
6.00 to 7.00

$$$$

Per the record, CC(C)C[C@H](C)n1cc(-c2nc(-c3cnn(C[C@@H](O)CO)c3)cn3nccc23)cn1 [Example 75] has pIC50 of 5.00 to 6.00

pIC50 reported for this molecule CCC(CC)n1cc(-c2nc(-c3cnn(C[C@H](O)[C@H](C)O)c3)cn3nccc23)cn1 [Example 65] : 6.00 to 7.00

// recorded pIC50 for CC[C@H](n1cc(-c2nc(-c3cnn(C[C@@H](O)CO)c3)cn3nccc23)cn1)C(C)(F)F [Example 198] : 5.00 to 6.00

FYI, the data here is from patent US10189845B2.
